Provide the reported z-score of each item.
Test: inhibition of PAO1 biofilm formation – strain PAO1, LB-PBS medium, absorbance 600 nm, primary screen (AID 1176); note: test concentration not given here
Details: P. aeruginosa PAO1 growth/biofilm, A600, 12 h; higher = more signal
Active and inactive are the calls of the source. The rule behind the calls is not given here.

# lookup: z-score of COC(=O)[C@@]1(Cc2ccc(F)cc2)[C@H]2c3cc(C(=O)N4CCCC4)n(CCc4ccc(OC)c(Br)c4)c3C[C@H]2CN1C(=O)c1ccccc1 1.07 (inactive)

# lookup: z-score of COCCOC(=O)N1C(=O)[C@@]2(c3cc(C#Cc4ccc(OC)cc4)ccc31)[C@H](C(N)=O)[C@H]1C(=O)O[C@H](c3ccccc3)[C@H](c3ccccc3)N1[C@@H]2c1ccc(O)cc1 0.886 (inactive)

# lookup: z-score of COC(=O)[C@@]1(Cc2ccc(OC)cc2)[C@H]2c3cc(C(=O)N4CCCC4)n(CCN4CCOCC4)c3C[C@H]2CN1C(=O)c1ccccc1 0.231 (inactive)

# lookup: z-score of C=C(CCCC)/C(=C/C[C@@H](OC(=O)c1ccncc1)c1ccc(CO)o1)c1cc(C(=O)OC)ccc1OC 0.847 (inactive)

# lookup: z-score of NC(=O)NCC#Cc1ccc2c(c1)[C@]1(C(=O)N2)[C@H](c2ccccc2OCCO)N2[C@H](c3ccccc3)[C@H](c3ccccc3)OC(=O)[C@H]2[C@@H]1C(=O)N1CCCCCCC1 1.92 (inactive)

# lookup: z-score of CC(C)CNC(=O)[C@@]1(C)c2ccccc2C(=O)N(C(C)C)[C@H]1c1ccc(CO)cc1 -0.273 (inactive)

====

Provide the reported z-score of each item.
Test: plasmodial surface anion channel blockers, osmotic lysis – cell-based, P. falciparum Indochina, OD700, 1 h, primary screen (AID 1154)
Details: P. falciparum Indochina infected RBC osmotic lysis, higher = more signal, called active from +8 up or from −8 down
Activity calls are given as the source filed them.

# lookup: z-score of CC(C)N1C(=O)c2ccccc2[C@](C)(C(=O)NC2CC2)[C@@H]1c1ccc(CO)cc1 0.838 (inactive)

# lookup: z-score of COCCOC(=O)N1C(=O)[C@@]2(c3cc(C#CC4=CCCCC4)ccc31)[C@H](C(=O)N1CCN(c3ncccn3)CC1)[C@H]1C(=O)O[C@H](c3ccccc3)[C@H](c3ccccc3)N1[C@@H]2c1ccc(OCCO)cc1 5.23 (inactive)

# lookup: z-score of C=C[C@H](C)[C@H](O)c1ccc(OCCO)cc1 1.09 (inactive)

# lookup: z-score of CC(C)C[C@@H]1NC(=O)[C@@H]2C[C@H](C(=O)NCCCCN(C)C)[C@H](c3ccc(O)cc3)N2C1=O -0.202 (inactive)

# lookup: z-score of CC(C)(C)OC(=O)CC[C@@]1(C(=O)NCC(O)CO)N=C(c2ccc(OCCCO)cc2)O[C@@H]1c1ccccc1 (some centres not stated) 20.4 (active)

# lookup: z-score of C=CCN1Cc2ccccc2C[C@]2(N=C(c3ccc(OCCCO)cc3)O[C@@H]2c2ccccc2)C1=O 24.3 (active)

# lookup: z-score of C=CCC(OC(C)=O)[C@@H]1[C@@H](N(Cc2cc3ccccc3o2)C(=O)c2cccc3ccccc23)c2cc(OCCCO)ccc2N1C(=O)Cc1ccc2ccccc2c1 (some centres not stated) 2.06 (inactive)

====

Test: plasmodial surface anion channel blockers, osmotic lysis – cell-based, P. falciparum Indochina, OD700, 2 h, primary screen (AID 1155);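 note: lysis reports solute entry through the parasite surface anion channel PSAC; channel blockers reduce lysis of infected cells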
Conditions: P. falciparum Indochina infected erythrocytes, higher = more signal, called active from +8 up or from −8 down
Provide the reported z-score of each item.
Format: numeric value only, no unit, no commentary.

# lookup: z-score of O=C1OCC=C[C@H]2OC34C=CCN(c5ccc(Cl)cc5)C(=O)[C@H]3N(CCCO)C(=O)[C@@H]4[C@@H]12 (some centres undefined) -0.531

# lookup: z-score of CCCCCCC#C[Si](O[C@H](c1ccccc1)c1cn([C@H](C)c2ccccc2)nn1)(C(C)C)C(C)C -0.0458

# lookup: z-score of C=CCN1Cc2ccccc2C[C@]2(N=C(c3ccc(OCCCO)cc3)O[C@@H]2c2ccccc2)C1=O 12.6

# lookup: z-score of O=C1O[C@@H](c2ccccc2)[C@@H](c2ccccc2)N2[C@@H](c3ccc(O)cc3)[C@]3(C(=O)Nc4ccccc43)[C@@H](C(=O)NC[C@H](O)c3ccccc3)[C@H]12 -1.01

# lookup: z-score of O=C1OCC=C[C@H]2OC34C=CCN(Cc5ccccc5)C(=O)[C@H]3N(CCCO)C(=O)[C@@H]4[C@@H]12 (some centres undefined) -1

# lookup: z-score of COCCCNC(=O)[C@@]1(Cc2ccccc2I)c2ccccc2C(=O)N(Cc2ccccc2)[C@H]1c1ccc(CO)cc1 2.37

# lookup: z-score of COc1ccc([Si](C)(C)[C@H]2[C@H](CCO)O[C@@]3(C(=O)N(Cc4cccc(N5C(=O)c6cccc7cccc5c67)c4)c4ccccc43)[C@@H]2C)cc1 2.2

# lookup: z-score of Cc1ccc(S[C@]2(C(=O)NCCCN(C)C)CC(=O)N(C(C)C)[C@@H]2c2ccc(CO)cc2I)cc1 -0.185

# lookup: z-score of CCCCN1CC=CC23O[C@@H]4/C=C\CCCOC(=O)C4[C@H]2C(=O)N(C(C)CO)[C@@H]3C1=O (some centres undefined) 1.06

# lookup: z-score of COc1ccc(C#Cc2ccc3c(c2)[C@]2(C(=O)N3)[C@H](C(=O)N3CCc4cc(OC)c(OC)cc4C3)[C@H]3C(=O)O[C@H](c4ccccc4)[C@H](c4ccccc4)N3[C@@H]2c2ccc(OCCO)cc2)cc1 2.37

# lookup: z-score of CN(C)CCCCCCNC(=O)[C@@H]1C[C@@H]2C(=O)N[C@@H](Cc3ccccc3)C(=O)N2[C@@H]1c1cccc(OCCO)c1 0.415

# lookup: z-score of C=C(CCCC)/C(=C/C[C@@H](OC(=O)c1ccncc1)c1ccc(CO)o1)c1cc(C(=O)OC)ccc1OC 1.07

# lookup: z-score of [N-]=[N+]=Nc1ccccc1[C@H]1OC(c2ccc(OCCCO)cc2)=N[C@@]1(CCS(=O)(=O)c1ccccc1)C(=O)N1CCOCC1 23.6

# lookup: z-score of CCN(CC)c1ccc(N2CC=CC34O[C@@H]5C=CCCOC(=O)C5[C@H]3C(=O)N(CCCO)[C@@H]4C2=O)cc1 (some centres undefined) -0.829

====

Experiment: growth of efflux-deficient E. coli DRC39 – strain DRC39, OD650, 48 h, E. coli filamentation inducers, primary screen (AID 1179);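 note: screen aims at cell division blockers that make cells filament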
Conditions: E. coli DRC39 delta-acrAB growth, higher = more signal, called active from +8 up or from −8 down
Quantity kind: z-score
Format: numeric value only, no unit, no commentary.

# lookup: z-score of COc1ccc([Si](C)(C)[C@@H]2[C@@H](CCO)O[C@]3(C(=O)N(Cc4ccccc4)c4ccc(N(C=O)c5ccccc5)cc43)[C@H]2C)cc1 0.843

# lookup: z-score of O=C1C2C=CC(C(O)CCc3ccccc3)N(Nc3ccccc3)C2C(=O)N1c1ccccc1 (configuration not stated) -1.18

# lookup: z-score of CN(C)CCCCCCNC(=O)[C@@H]1C[C@@H]2C(=O)NCC(=O)N2[C@@H]1c1cccc(OCCO)c1 0.614

# lookup: z-score of COC(=O)[C@@]1(Cc2ccccc2)[C@H]2c3cc(C(=O)N(C)C)n(Cc4cc(F)c(F)c(F)c4)c3C[C@H]2CN1C(=O)c1ccccc1 0.322

# lookup: z-score of O=C(CS)NCCCCCCNC(=O)[C@H]1C[C@H]2C(=O)N3CCC[C@H]3C(=O)N2[C@H]1c1ccc(O)cc1 -0.516

# lookup: z-score of C=CCNC(=O)[C@@H]1[C@H]2C(=O)O[C@H](c3ccccc3)[C@H](c3ccccc3)N2[C@H](c2ccccc2OCCO)[C@@]12C(=O)N(C(=O)OCCOC)c1ccc(C#CCC(C(=O)OC)C(=O)OC)cc12 -0.418

# lookup: z-score of [N-]=[N+]=NCc1ccccc1[C@H]1OC(c2ccc(OCCCO)cc2)=N[C@@]1(Cc1ccccc1)C(=O)O -0.835

====

Assay: probe aLefty2 binding to arrayed compounds – biochemical, biotinylated probe, 635/667 nm fluorescence, primary screen (AID 1094);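 note: score merges spot fluorescence near 667 nm with spot signal-to-noise ratio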
Conditions: small-molecule microarray, higher = more signal
Use satisfied when the recorded composite z-score is no lower than 0.07; use not satisfied when it is lower.

Is composite z-score for CO[C@H]1O[C@H](CO)[C@@H](OC(=O)Nc2ccc(C(F)(F)F)cc2)[C@H](OC(=O)Nc2ccccc2)[C@@H]1OC(=O)Nc1ccccc1 at or above 0.07? not satisfied

Is composite z-score for COc1ccc([Si](C)(C)[C@H]2[C@H](CC(=O)N3CCC[C@H]3CO)O[C@@]3(C(=O)N(Cc4cccc(N5CCC5=O)c4)c4ccccc43)[C@@H]2C)cc1 at or above 0.07? satisfied

Is composite z-score for CC(C)NC(=O)[C@@H]1c2ccccc2C(=O)N(C2CCCCC2)[C@H]1c1ccc(CO)cc1 at or above 0.07? satisfied

Is composite z-score for CO[C@H]1O[C@H](CO)[C@@H](OC(=O)Nc2ccccc2-c2ccccc2)[C@H](OC(=O)Nc2ccccc2-c2ccccc2)[C@H]1OC(=O)Nc1ccccc1-c1ccccc1 at or above 0.07? satisfied

Is composite z-score for CC(C)(C)OC(=O)CC[C@@]1(C(=O)N2CCOCC2)N=C(c2ccc(OCCCO)cc2)O[C@@H]1c1ccccc1N=[N+]=[N-] at or above 0.07? satisfied

Is composite z-score for CCCCC(=C=CC[C@H](O)c1ccccc1OCCO)C[C@H](O)c1cc(Cl)cc(Cl)c1O at or above 0.07? not satisfied

Is composite z-score for COC(=O)[C@@]1(Cc2ccc(F)cc2)[C@H]2c3cc(C(=O)N4CCCC4)n(CCc4ccc(OC)c(Br)c4)c3C[C@H]2CN1C(=O)c1ccccc1 at or above 0.07? satisfied

Is composite z-score for OCCCc1cc[n+](Cc2cccc(OC(F)(F)F)c2)cc1 at or above 0.07? satisfied

Is composite z-score for COC(=O)[C@@]1(Cc2ccc(OC)cc2)[C@H]2c3cc(C(=O)N4CCCC4)n(CCN4CCOCC4)c3C[C@H]2CN1C(=O)c1ccccc1 at or above 0.07? satisfied

Is composite z-score for O=C1C2C=CC(C(O)c3ccc(-c4ccccc4)s3)N(Nc3ccccc3F)C2C(=O)N1c1ccccc1 (stereo not given) at or above 0.07? satisfied

Is composite z-score for CCCNC(=O)[C@@]1(c2ccc([N+](=O)[O-])cc2)CC(=O)N(CC23CC4CC(CC(C4)C2)C3)[C@@H]1c1ccc(CO)cc1I at or above 0.07? satisfied

Is composite z-score for COC(=O)[C@@]1(Cc2ccc(OC)cc2)[C@H]2c3cc(C(=O)N4CCCC4)n(C[C@H](O)CO)c3C[C@H]2CN1C(=O)c1ccccc1 at or above 0.07? not satisfied

Is composite z-score for COc1ccc([Si](C)(C)[C@@H]2[C@@H](CCO)O[C@]3(C(=O)N(Cc4cccc(N5CCCCC5=O)c4)c4ccccc43)[C@H]2C)cc1 at or above 0.07? not satisfied

Is composite z-score for CC(C)OC(=O)C1=CCC(c2cccc(Cl)c2)O1 (stereo not given) at or above 0.07? not satisfied

Is composite z-score for CN1C(=O)C2C=CC(C(O)C(C)(C)C)N(Nc3ccccc3)C2C1=O (stereo not given) at or above 0.07? not satisfied

Is composite z-score for Cc1ccc(S(=O)(=O)N2CC(C(=O)O)=CCC2c2ccccc2)cc1 (stereo not given) at or above 0.07? satisfied

Is composite z-score for COC(=O)c1c(CC[C@@H](CO)NC(=O)Nc2ncn[nH]2)oc(C(=O)Cc2ccccc2)c1C(=O)OC at or above 0.07? not satisfied

Is composite z-score for C=C(C(=O)CC[C@@H](OC(C)=O)c1ccc(OCCO)cc1)C(C)C at or above 0.07? not satisfied

Is composite z-score for [N-]=[N+]=NCc1ccccc1C[C@]1(C(=O)NCCN2CCOCC2)N=C(c2ccc(OCCCO)cc2)O[C@H]1c1ccccc1CN=[N+]=[N-] at or above 0.07? satisfied

Is composite z-score for O=C1C2C=CC(C(O)c3cccc4ccccc34)N(n3cnnc3)C2C(=O)N1Cc1ccccc1 (stereo not given) at or above 0.07? satisfied

Is composite z-score for C[N+](C)(C)CCCC[C@@H]1NC(=O)[C@H]2C[C@@H](C(=O)O)[C@@H](c3cccc(OCCO)c3)N2C1=O at or above 0.07? satisfied

Is composite z-score for C=CC[C@@]1(C(=O)NCCN2CCOCC2)N=C(c2ccc(OCCCO)cc2)O[C@@H]1c1ccccc1CN=[N+]=[N-] at or above 0.07? satisfied

Is composite z-score for CC(c1ccccc1)C(O)C1C=CC2C(=O)N(c3ccccc3)C(=O)C2N1Nc1ccccc1F (stereo not given) at or above 0.07? satisfied

Is composite z-score for CCOC(=O)C[C@H]1[C@H](OC(=O)c2cc3ccccc3oc2=O)[C@@H](NC(=O)c2ccc3ccccc3c2)c2cc(OCCCO)ccc2N1C(=O)c1ccccc1 at or above 0.07? not satisfied

Is composite z-score for NC(=O)NCC#Cc1ccc2c(c1)[C@]1(C(=O)N2)[C@H](C(=O)NC[C@H](O)c2ccccc2)[C@H]2C(=O)O[C@H](c3ccccc3)[C@H](c3ccccc3)N2[C@@H]1c1ccccc1OCCO at or above 0.07? not satisfied

Is composite z-score for CN(C)CCCCCCNC(=O)[C@@H]1C[C@@H]2C(=O)NCC(=O)N2[C@@H]1c1cccc(OCCO)c1 at or above 0.07? satisfied

Is composite z-score for CN1C(=O)C2C=CC(C(O)C(c3ccccc3)c3ccccc3)N(Nc3ccccc3)C2C1=O (stereo not given) at or above 0.07? not satisfied

Is composite z-score for CN(C)CCCC[C@@H]1NC(=O)[C@@H]2C[C@H](C(=O)NCCCCCCN)[C@H](c3ccc(O)cc3)N2C1=O at or above 0.07? satisfied

Is composite z-score for C=CCC(OC(C)=O)[C@@H]1[C@@H](N(Cc2cc3ccccc3o2)C(=O)c2ccc(C)cc2)c2cc(OCCCO)ccc2N1C(=O)c1ccc(-c2ccccc2)cc1 (stereo not given in full) at or above 0.07? not satisfied
